- TARGET OF ASSAY: chicken gizzard smooth muscle myosin subfragment-1 chemically crosslinked to cardiac or skeletal actin (Gallus gallus)
VALUE TYPE: IC50 (nM)

In [3]: df
Out[3]:
                                   compound  result_number
0  CC(C)(CNC(=O)c1ccc(-c2ccccc2C#N)nc1NCCc1cccc(F)c1)NS(C)(=O)=O           1470

(P) Cn1cc(-c2ccc(C(=O)NCc3cc[nH]n3)c(NCCc3cccc(F)c3)n2)cn1
(Q) COc1ccc(-c2ccc(C(=O)NCc3cccnc3)c(NCCc3ccccn3)n2)cc1
(R) N#Cc1ccccc1-c1ccc(C(=O)NCC2CCN(C(=O)CCN)CC2)c(NCCc2cccc(F)c2)n1
(S) COC(=O)[C@H](N)CNC(=O)c1cc(F)c(-c2cnn(C)c2)nc1NCCc1cccc(F)c1
Prompt: Rank ascending by IC50. Respond with the label ranking, as requested.
Response: P, S, Q, R

###

- TARGET OF ASSAY: chicken gizzard smooth muscle myosin subfragment-1 chemically crosslinked to cardiac or skeletal actin (Gallus gallus, UniProt P10587)
pIC50: −log10 of the molar value.
VALUE TYPE: pIC50

>>> print(df.to_string())
                           molecular_string  value_type  result_number
0  O=C(NCc1cccnc1)c1ccc(-c2ccccc2)nc1NCCN1CCOCC1       pIC50           4.43
1  CC(C)(C)OC(=O)NCCCN1C(=O)CC[C@@H]1CNC(=O)c1cc(C#N)c(-c2cn[nH]c2)nc1NCCc1cccc(F)c1       pIC50           5.46
2  CC[C@H](CNC(=O)c1cc(F)c(-c2cn[nH]c2)nc1NCCc1cccc(F)c1)NC(=O)CN       pIC50           6.80
3  N#Cc1ccccc1-c1ccc(C(=O)NCC(=O)NCCCO)c(NCCc2cccc(F)c2)n1       pIC50           5.23
4  N#Cc1ccccc1-c1ccc(C(=O)NC[C@H]2CCCN2)c(NCCc2cccc(F)c2)n1       pIC50           6.76
5  N#Cc1ccccc1-c1nc(NCCc2cccc(F)c2)c(C(=O)NC[C@H]2CCC(=O)N2CCCN)cc1F       pIC50           7.38
6  O=Cc1ccsc1-c1ccc(C(=O)NCc2cccnc2)c(NCCc2cccc(F)c2)n1       pIC50           6.11
7  O=C(NCc1cccnc1Cl)c1ccc(-c2cn[nH]c2)nc1NCCc1cccc(F)c1       pIC50           7.34
8  [N-]=[N+]=NCc1cc(C(=O)NCc2cccnc2)c(NCCc2cccc(F)c2)nc1-c1ccccc1       pIC50           6.37
9  N#Cc1ccccc1-c1ccc(C(=O)N[C@@H](CN)C(=O)O)c(NCCc2cccc(F)c2)n1       pIC50           4.96

(I) C[C@@H](CO)CNC(=O)c1cc(F)c(-c2cn[nH]c2)nc1NCCc1cccc(F)c1
(II) Cn1cc(-c2nc(NCCc3cccc(F)c3)c(C(=O)NC[C@H]3CCC(=O)N3CCCNC(=O)OC(C)(C)C)cc2Cl)cn1
Prompt: Of I versus II , which is the one with smaller reported pIC50? Refer to your chosen item by its label in the answer.
Response: II
(II: 6.35, I: 7.23)

(1) N#Cc1ccccc1-c1ccc(C(=O)NC[C@H]2CCN2C(=O)[C@@H](N)CCCN)c(NCCc2cccc(F)c2)n1
(2) COC(=O)[C@@H](C)CNC(=O)c1cc(F)c(-c2cnn(C)c2)nc1NCCc1cccc(F)c1
(3) N#Cc1ccccc1-c1ccc(C(=O)NC[C@H]2CNCCN2C(=O)CN)c(NCCc2cccc(F)c2)n1
(4) Cn1cc(-c2nc(NCCc3cccc(F)c3)c(C(=O)NC[C@H]3CCN3)cc2F)cn1
(5) Cc1cc(C(=O)NC[C@H]2CCCN2)c(NCCc2cccc(F)c2)nc1-c1cnn(C)c1
Prompt: Rank ascending by pIC50. Respond with the label ranking, as requested.
Response: 3, 4, 5, 1, 2
(3: 5.56, 4: 5.80, 5: 6.05, 1: 6.56, 2: 6.85)

###

- TARGET OF ASSAY: chicken gizzard smooth muscle myosin subfragment-1 chemically crosslinked to cardiac or skeletal actin (Gallus gallus)
VALUE TYPE: IC50 (µM)

In [3]: df
Out[3]:
                                   compound  quantity_unit  result_number
0  C=CCNC(=O)c1ccc(-c2ccccc2)nc1NCCc1ccccn1             µM           3.12

(a) O=C(O)c1ccc(-c2ccc(C(=O)NCc3cccnc3)c(NCCc3ccccn3)n2)cc1
(b) N#Cc1ccccc1-c1nc(NCCc2cccc(F)c2)c(C(=O)NC[C@H]2CCCN2)cc1F
(c) N#Cc1ccccc1-c1ccc(C(=O)NCC2CCCC(=O)N2CCCN)c(NCCc2cccc(F)c2)n1 (stereo not shown)
(d) N#Cc1ccccc1-c1ccc(C(=O)NCc2cc[nH]n2)c(NCCc2cccc(F)c2)n1
(e) N#Cc1ccccc1-c1ccc(C(=O)NCC2CCNC2)c(NCCc2cccc(F)c2)n1 (stereo not shown)
Prompt: Thanks in advance: please rank these 5 entries by IC50, highest to lowest. Respond with the label ranking, as requested.
Response: a, e, b, c, d
(a: 18.3 µM, e: 0.963 µM, b: 0.103 µM, c: 0.025 µM, d: 0.015 µM)

(P) C[C@@H](CNC(=O)c1ccc(-c2ccccc2C#N)nc1NCCc1cccc(F)c1)N(C)C(=O)CN
(Q) COC(=O)[C@H](CNC(=O)c1ccc(-c2ccccc2C#N)nc1NCCc1cccc(F)c1)NC(C)=O
(R) O=C(NCc1ccno1)c1ccc(-c2ccccc2)nc1NCCc1ccccn1
Prompt: Thanks in advance: please rank these 3 entries by IC50, highest to lowest. Respond with the label ranking, as requested.
Response: P, Q, R
(P: 3.25 µM, Q: 1.64 µM, R: 0.836 µM)

###

- TARGET OF ASSAY: chicken gizzard smooth muscle myosin subfragment-1 chemically crosslinked to cardiac or skeletal actin (Gallus gallus)
VALUE TYPE: IC50 (nM)

Guide cases for IC50, answers given:
In [3]: df
Out[3]:
                                   compound  value_type  quantity_unit  result_number
0  O=C(NCc1ccccn1)c1cc(F)c(-c2cn[nH]c2)nc1NCCc1cccc(F)c1        IC50             nM             24
1  Cn1cc(-c2nc(NCCc3cccc(F)c3)c(C(=O)NC[C@H]3CCCN3)cc2Cl)cn1        IC50             nM            167
2  NCCCN1C(=O)CNC[C@@H]1CNC(=O)c1ccc(-c2cc[nH]n2)nc1NCCc1cccc(F)c1        IC50             nM           9630

(A) N#Cc1ccccc1-c1ccc(C(=O)NC[C@@H]2CCCN2C(=O)CCN)c(NCCc2cccc(F)c2)n1
(B) N#Cc1ccccc1-c1ccc(C(=O)NC[C@H]2CCCN2C(=O)CCCN)c(NCCC2CCOCC2)n1
(C) O=C(NCc1cccnc1)c1ccc(-c2ccccc2)nc1NCCc1ccco1
(D) N#Cc1ccccc1-c1ccc(C(=O)NC[C@H]2CCN2C(=O)C(O)CO)c(NCCc2cccc(F)c2)n1 (stereo partly drawn)
(E) N#Cc1ccccc1-c1ccc(C(=O)NCCc2cccc(CN)n2)c(NCCc2cccc(F)c2)n1
Prompt: Thanks in advance: please rank these 5 entries by IC50, highest to lowest. Respond with the label ranking, as requested.
Response: B, A, C, D, E

###

- TARGET OF ASSAY: chicken gizzard smooth muscle myosin subfragment-1 chemically crosslinked to cardiac or skeletal actin (Gallus gallus, UniProt P10587)
- Construct: chicken gizzard smooth muscle myosin subfragment-1; from tissue; host or cells: chicken gizzard
- PROTOCOL NOTES: Smooth muscle myosin ATPase dose response assay (pyruvate kinase/horseradish peroxidase/pyruvate oxidase-coupled, amplex red fluorescence)
- Format: biochemical
- CONDITION SET: read-out: IC50 Arithmetic Mean
VALUE TYPE: IC50 (µM)

>>> print(df.to_string())
                                   compound  value_type  result_number
0  Cc1cccc(-c2ccc(C(=O)NCc3cccnc3)c(NCCc3ccccn3)n2)c1        IC50           6.27
1  N#Cc1ccccc1-c1ccc(C(=O)NC[C@@H]2CCCNC2)c(NCCc2cccc(F)c2)n1        IC50           2.15
2  NCCCC(=O)N1CCCC1CNC(=O)c1cc(F)c(-c2cc[nH]n2)nc1NCCc1cccc(F)c1 (centres unmarked)        IC50          0.169

(P) N#Cc1ccccc1-c1ccc(C(=O)NC[C@H]2CCCN2C(=O)CCCO)c(NCCc2cccc(F)c2)n1
(Q) O=C(NCc1cccnc1)c1ccc(-c2ccccc2F)nc1NCCc1cccc(F)c1
Prompt: Between P and Q , which one shows the larger IC50 value? Refer to your chosen item by its label in the answer.
Response: Q
